Tested on: OVCAR-8
test: NCI tumour cell line growth inhibition, 48 h
Active and inactive are the calls of the source. Cut-off read from the data, not from the text of the source: active = GI50 up to about 1.1 µM and inactive = higher.
Answer with one of the outcomes given here: Y (active), N (inactive)

CCN1N=CSC12C(=O)N(c1ccccc1)C(=O)N2c1ccccc1 (stereo unspecified): N
COC(=O)Cc1c([C@@]2(C)CCCC(C)(C)C2)ccc2c1C(=O)OC2: N
O=C(CC(Cc1ccccc1)c1ccc(Oc2ccccc2)cc1)Nc1cccc(Cl)c1 (stereo unspecified): N
CCCCCCCC(CC(=O)NC(CO)C(=O)NC(CO)CC(C)C)OC(=O)CC(CCCCCCC)OC(=O)CC(CCCCCCC)OC1OC(C)C(O)C(OC2OC(C)C(O)C(O)C2O)C1O (stereo unspecified): N
COC(=O)Nc1nc2cc(NS(=O)(=O)c3cccs3)ccc2[nH]1: N

Any idea what this test logged for "O=C1NC(=S)NC(=O)C1C(c1ccc([N+](=O)[O-])cc1)C1C(=O)NC(=S)NC1=O.c1ccncc1" ?
N

Any idea what this test logged for "CCOC(=O)c1sc2nc(SC)nc3c2c1NCN3c1ccc(F)c(F)c1" ?
N

Any idea what this test logged for "COc1ccc(/C=C/C(=O)c2ccc(OC(=O)/C=C/c3ccccc3)cc2)cc1" ?
N

Any idea what this test logged for "CC(=O)NNc1nc(C)c(C(=O)NNC(=O)C(=O)Nc2ccccc2C#N)s1" ?
N

Any idea what this test logged for Cc1nn(C(=O)c2ccncc2)c2c1C(c1ccc([N+](=O)[O-])cc1)SC(=N)N2 (stereo unspecified) ?
N

Any idea what this test logged for CC(Cc1ccccc1)Nc1ncnc2c1ncn2C1OC(CO)CC1O (stereo unspecified) ?
N

Any idea what this test logged for COc1ccc2c(c1OC)C(=O)O[C@@H]2[C@H]1c2c(cc3c(c2OC)OCO3)CCN1C [NOSCAPINE] ?
N

Any idea what this test logged for "COc1cc(/C=C2\N=C(c3ccccc3)N(c3ccc4c(c3)Sc3cc(N5C(=O)/C(=C/c6cc(OC)c(OC)c(OC)c6)N=C5c5ccccc5)ccc3N4)C2=O)cc(OC)c1OC" ?
N

Any idea what this test logged for "CC[C@H](C)c1occ2c(O)c(C(=O)O)c(=O)cc-2c1C" ?
N

Any idea what this test logged for "Cc1cc2c3c(coc3c1-c1c(C)cc3c4c(coc14)C(=O)C(O)=C3C(C)C)C(=O)C(O)=C2C(C)C" ?
N

Any idea what this test logged for "CN1CCN(c2ccncc2S(=O)(=O)N2CCN(C)CC2)CC1" ?
N

Any idea what this test logged for CC1=NN=C(N)NC1=CC(Sc1ccc(Cl)cc1)c1c(O)ccc2ccccc12 (stereo unspecified) ?
N

* * *

Tested on: SF-268
test: NCI tumour cell line growth inhibition, 48 h
Activity calls are given as the source filed them. Rule as the data show it: active = GI50 up to about 1.1 µM and inactive = higher.
measured_endpoint: GI50

COC(=O)[C@@H]1C[C@H]2OC(=O)CC[C@]2(C)O[C@H]1[C@H]1O[C@@](C)(O)CCC[C@H]1C: > 50 µM (inactive)

Param readout = GI50; param system = SF-268; param query = "Cc1ccc([N+](=O)[O-])c2c(NCCNC(=O)c3cc(C(=O)NCCNc4ccnc5c(C)ccc([N+](=O)[O-])c45)n(C)n3)ccnc12" ; response: value
> 100 µM (inactive)

Param readout = GI50; param system = SF-268; param query = "CCCCS/C(=C(/C#N)C(N)=O)c1cc2c([nH]1)CCCC2" ; response: value
13.8 µM (inactive)

Param readout = GI50; param system = SF-268; param query = "COc1cc2c(cc1C[N+](C)(C)CSc1ccccc1)-c1ccccc1CC2" ; response: value
5.32 µM (inactive)

Param readout = GI50; param system = SF-268; param query = "CC[C@H](C)c1occ2c(O)c(C(=O)O)c(=O)cc-2c1C" ; response: value
33.7 µM (inactive)

Param readout = GI50; param system = SF-268; param query = "COC(=O)c1nn2ccc3ccccc3c2c1C(=O)OC" ; response: value
> 100 µM (inactive)

Param readout = GI50; param system = SF-268; param query = COc1cc(S(=O)(=O)Nc2ccc(-c3csc(N4C(=O)C(C)SC4c4cccs4)n3)cc2)ccc1Cl (stereo not drawn) ; response: value
22.5 µM (inactive)

Param readout = GI50; param system = SF-268; param query = C=C(C)[C@@H]1CC[C@@H]2C(=CC[C@]3(C)C([C@H](C)CC/C=C(/C)C(=O)O)CC[C@@]23C)[C@@]1(C)CCC(=O)O (stereo partly drawn) ; response: value
37.7 µM (inactive)

Reference source: ChEMBL document CHEMBL1201862
